Reference source: ChEMBL document CHEMBL1201862

What follows is a record of AC50 for Cytochrome P450 1A2 (Homo sapiens).

Some compounds with known AC50 results, for comparison:
- Compound: "CC(=O)c1cccc(NC(=O)Cc2ccc3c(c2)CCCC3)c1"
  AC50: "25.1 µM (inconclusive)"
- Compound: "COc1ccc(C(C(=O)NC2CCCCC2)N(C(=O)Cc2c[nH]c3ccccc23)c2ccc(NC(C)=O)cc2)cc1OC (stereo not drawn)"
  AC50: "25.1 µM (inconclusive)"
- Compound: "C#CCCCC(=O)Nc1ccccc1"
  AC50: "20 µM (inconclusive)"
- Compound: "CCCCCCCCCn1cc(C(C)=O)c(=O)[nH]c1=O"
  AC50: "14.1 µM (inconclusive)"
- Compound: "COc1ccc(-c2nc3cnc(N4CCOCC4)nc3n(Cc3cccs3)c2=O)cc1"
  AC50: "2.51 µM (inconclusive)"

Q. What is its AC50 for Cytochrome P450 1A2 (Homo sapiens)? Entry: CO/C(O)=C1\C(C)=NC(C)=C([N+](=O)[O-])[C@@H]1c1ccccc1C(F)(F)F
A. 39.8 µM (inconclusive)

Q. GET /values?readout=AC50&system=Cytochrome P450 1A2 (Homo sapiens)&item= Cc1ccc(-n2c(SCC(=O)N3CCOCC3)nnc2-c2cccnc2)cc1;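 also: PubChem cytochrome P450 panel assay, CYP1A2 panel member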
A. 10 µM (inconclusive)

Q. What measured AC50 is associated with CCNc1ncc2nc(-c3cc(F)cc(F)c3)c(=O)n(CCC#N)c2n1 on Cytochrome P450 1A2 (Homo sapiens)?
A. 0.794 µM (inconclusive)

---

Procedure Summary: cells
Type: functional, cell-based
The source made the active and inactive calls.
Let's look at some compounds and their measured EC50.

- Smiles Record: "Cc1ccc(-c2csc3nc(SCC(=O)N(C)C)n(Cc4ccccc4)c(=O)c23)cc1"
  EC50: "> 350 µM (not active)"
- Smiles Record: "Nc1nonc1C(=O)N/N=C/c1cc(Br)ccc1O"
  EC50: "> 350 µM (not active)"

Q. Fill in the blank: the reported EC50 of Clc1c(CSc2nc3ccccc3o2)nc2sccn12 is ____.
A. 21 µM (active)

Q. EC50 for CCN(CC)c1ccc(/C=N/NC(=O)c2ccc3[nH]cnc3c2)c(O)c1 ?
A. > 350 µM (not active)

---

Procedure Summary: blockade of melanocortin 4 receptor signaling – cell-based, plate reader, cherry pick, counter-screen for LGR2 antagonist project, dose response (AID 743444);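 also: transfected HEK 293 cells stimulated with alpha-MSH peptide; potency of inhibitors of the alpha-MSH evoked signal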
Assay type: functional
Activity calls are given as the source filed them.
Measurement Label: AC50

Worked set:
- Compound: "O=C(CCc1nnc(CCCCc2ccccc2)o1)N1CCCC(O)C1 (centres undefined)"
  Measurement Label: "AC50"
  Reported Result: "3.46 µM (active)"
- Compound: "C[C@H]1CN([C@@H](C)CO)C(=O)c2cc(NC(=O)Nc3ccccc3)ccc2O[C@H]1CN(C)Cc1ccc(-c2ccccc2)cc1"
  Measurement Label: "AC50"
  Reported Result: "39.4 µM (active)"
- Compound: "COc1ccc(-c2nc(-c3ccccc3)no2)c(OC)c1"
  Measurement Label: "AC50"
  Reported Result: "1.05 µM (active)"

The record that follows has no AC50 shown yet.
Q. Please look up its AC50: C#CC(=O)N(c1cccc(OC)c1)C(C(=O)NC1CCCC1)c1cccs1 (centres undefined)
A. 2.25 µM (active)

---

Listing: EC50 of selected molecules
System Name: Voltage-dependent T-type calcium channel subunit alpha-1H (Homo sapiens);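 also: channel activity triggered by adding a high calcium stimulation buffer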
Sequence (O95180 whole entry): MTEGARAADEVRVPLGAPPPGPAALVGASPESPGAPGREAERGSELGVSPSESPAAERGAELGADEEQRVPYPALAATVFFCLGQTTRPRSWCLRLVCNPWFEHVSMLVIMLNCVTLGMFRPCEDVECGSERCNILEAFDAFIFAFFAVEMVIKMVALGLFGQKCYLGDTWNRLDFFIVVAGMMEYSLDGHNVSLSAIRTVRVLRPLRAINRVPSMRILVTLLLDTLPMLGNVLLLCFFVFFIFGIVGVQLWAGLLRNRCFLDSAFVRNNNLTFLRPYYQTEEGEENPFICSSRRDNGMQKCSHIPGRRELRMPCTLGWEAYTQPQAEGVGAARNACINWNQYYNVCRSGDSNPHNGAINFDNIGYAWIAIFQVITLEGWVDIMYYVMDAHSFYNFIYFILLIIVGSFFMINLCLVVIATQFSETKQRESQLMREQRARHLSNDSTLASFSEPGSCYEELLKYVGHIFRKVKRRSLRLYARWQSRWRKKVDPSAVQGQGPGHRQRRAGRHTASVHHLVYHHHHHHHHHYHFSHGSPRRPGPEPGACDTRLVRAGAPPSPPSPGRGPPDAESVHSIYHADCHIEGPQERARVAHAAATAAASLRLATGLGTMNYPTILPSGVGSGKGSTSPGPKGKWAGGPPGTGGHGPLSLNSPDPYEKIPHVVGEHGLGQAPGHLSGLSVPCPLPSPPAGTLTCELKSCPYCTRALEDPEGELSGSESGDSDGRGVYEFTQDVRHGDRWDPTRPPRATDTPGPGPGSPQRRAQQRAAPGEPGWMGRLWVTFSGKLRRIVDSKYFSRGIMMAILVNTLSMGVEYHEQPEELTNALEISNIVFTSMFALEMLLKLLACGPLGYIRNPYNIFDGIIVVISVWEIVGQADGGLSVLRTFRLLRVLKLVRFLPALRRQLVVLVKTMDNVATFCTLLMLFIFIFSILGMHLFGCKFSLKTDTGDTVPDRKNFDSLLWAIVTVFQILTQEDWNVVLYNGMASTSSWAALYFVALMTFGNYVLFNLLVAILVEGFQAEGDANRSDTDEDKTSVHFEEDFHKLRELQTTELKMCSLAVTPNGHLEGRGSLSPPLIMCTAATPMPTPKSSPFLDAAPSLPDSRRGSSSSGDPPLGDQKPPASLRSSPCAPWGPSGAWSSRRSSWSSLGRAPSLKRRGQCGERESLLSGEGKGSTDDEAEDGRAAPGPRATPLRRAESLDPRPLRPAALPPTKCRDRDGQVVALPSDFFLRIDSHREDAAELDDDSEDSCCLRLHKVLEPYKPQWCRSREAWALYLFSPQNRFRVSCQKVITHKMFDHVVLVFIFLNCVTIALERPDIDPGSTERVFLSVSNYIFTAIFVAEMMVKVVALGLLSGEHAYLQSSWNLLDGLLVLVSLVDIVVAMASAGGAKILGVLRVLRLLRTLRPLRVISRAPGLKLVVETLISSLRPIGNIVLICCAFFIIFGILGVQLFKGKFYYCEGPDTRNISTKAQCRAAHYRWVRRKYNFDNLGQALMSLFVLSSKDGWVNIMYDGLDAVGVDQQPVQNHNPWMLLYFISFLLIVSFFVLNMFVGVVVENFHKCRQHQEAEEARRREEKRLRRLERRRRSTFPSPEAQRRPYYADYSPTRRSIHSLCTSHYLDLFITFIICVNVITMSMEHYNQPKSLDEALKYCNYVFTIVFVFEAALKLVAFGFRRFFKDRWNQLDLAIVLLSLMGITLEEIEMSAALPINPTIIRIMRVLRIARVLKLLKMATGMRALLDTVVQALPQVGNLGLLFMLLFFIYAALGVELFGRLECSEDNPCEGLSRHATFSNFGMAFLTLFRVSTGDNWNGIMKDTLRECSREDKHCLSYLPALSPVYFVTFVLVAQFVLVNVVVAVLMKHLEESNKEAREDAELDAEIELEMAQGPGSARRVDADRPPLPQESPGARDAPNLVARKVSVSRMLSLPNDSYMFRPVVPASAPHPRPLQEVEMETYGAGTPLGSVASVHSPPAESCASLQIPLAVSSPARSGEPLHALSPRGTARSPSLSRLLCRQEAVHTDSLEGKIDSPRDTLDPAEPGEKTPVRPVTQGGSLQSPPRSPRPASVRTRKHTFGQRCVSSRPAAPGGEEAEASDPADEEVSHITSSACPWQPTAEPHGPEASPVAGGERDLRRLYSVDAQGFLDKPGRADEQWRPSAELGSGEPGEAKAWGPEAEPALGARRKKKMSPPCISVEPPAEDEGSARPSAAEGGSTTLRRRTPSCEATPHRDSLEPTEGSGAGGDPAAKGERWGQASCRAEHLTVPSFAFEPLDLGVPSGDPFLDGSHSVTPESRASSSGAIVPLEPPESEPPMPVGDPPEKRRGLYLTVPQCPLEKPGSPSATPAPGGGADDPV
Assay type: functional
Calls of active or inactive are those of the source.

The examples below pair each entry with its known result.
- Molecule: "Cc1ccc(NC(=O)c2c(-c3c(F)cccc3Cl)noc2C)cc1F"
  EC50: "5.69 µM (active)"
- Molecule: "Cc1ccc(N(C(=O)Cc2c[nH]c3ccccc23)C(C(=O)NC2CCCCC2)c2ccco2)cc1 (stereo unspecified)"
  EC50: "10.2 µM (active)"
- Molecule: "Cc1[nH]c2ccccc2c1SCC(=O)N1CCCc2ccccc21"
  EC50: "6.34 µM (active)"

Q. Notebook: pull reported EC50 for Voltage-dependent T-type calcium channel subunit alpha-1H (Homo sapiens), entry Cn1cccc1Cc1nnc(SCC(=O)Nc2ccccc2)n1-c1ccc(F)cc1
A. 2.44 µM (active)

Q. Provide value of EC50 for this record tested with Voltage-dependent T-type calcium channel subunit alpha-1H (Homo sapiens): N#CC(c1cccc(Cl)c1)c1ccc2c(C(F)(F)F)cc(C(F)(F)F)nc2n1 (stereo unspecified)
A. 3.85 µM (active)

Q. Item O=c1oc2ccccc2n1CSc1nc2ccccc2s1 with Voltage-dependent T-type calcium channel subunit alpha-1H (Homo sapiens) - EC50?
A. 550 µM (active)

---

Procedure Summary: Luminescence Cell-Based Dose Retest to Confirm Inhibitors of Cancer Stem Cells. [Related pubchem assays (depositor defined):AID2717, AID2721]
Assay type: functional
Condition Notes: Homo sapiens
Activity calls are given as the source filed them.
Measurement Label: AC50

Recorded AC50, per entry:
- Molecule: "OC(CN1CCCCC1)Cn1c2ccc(Cl)cc2c2cc(Cl)ccc21 (centres undefined)"
  AC50: "5.53 µM (active)"
- Molecule: "CC(C)CCNc1nc(-c2ccco2)c2c(c1C#N)CCCC2"
  AC50: "10.4 µM (active)"
- Molecule: "Cc1ccc(/C=N/c2ccccc2C(N)=O)s1"
  AC50: "2.44 µM (active)"

For the next question, use this molecule.
Q. Please report the recorded AC50 for O=C(CCN1Cc2ccccc2C1)c1ccc2c(c1)OCCO2 .
A. 11.5 µM (active)

---

Procedure Summary: Luminescence Cell-Based Dose Response HTS to Identify Activators of Luciferase Translation or Activity in H4 […] Cells. [Related pubchem assays: 1829 (Project Summary), 1814 (Primary HTS)]
Format: functional
Active and inactive are the calls of the source.
Measured EC50 by item

- Smiles Record: "COc1cccc(NCc2cc(=O)oc3cc(-c4ccccc4)c(O)cc23)c1"
  EC50: "15.2 µM (active)"
- Smiles Record: "Cc1cccn2cc(-c3ccc4c(c3)NC(=O)CO4)nc12"
  EC50: "34.6 µM (active)"
- Smiles Record: "CCc1ccc(-c2ccc(C(=O)C(F)(F)F)[nH]2)cc1"
  EC50: "0.19 µM (active)"
- Smiles Record: "Cc1cccc2nc(COc3ccc4ccccc4c3Br)cn12"
  EC50: "< 0.1 µM (inconclusive)"
- Smiles Record: "Cc1ccc(NC(=O)c2cnn(-c3ccccc3)c2C)c(C)c1"
  EC50: "37.9 µM (active)"

For the next question, use this molecule.
Q. Entry COc1ccc(/C=C/C2=NC(=C\N(C)C)/C(=O)O2)cc1 : reported EC50 = ?
A. 11.2 µM (active)

---

System Name: Phospholipase A2 (Homo sapiens, UniProt P04054);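 also: confirmatory dose-response counterscreen on phospholipase A2, testing hits that came from an ultra-high-throughput screen for ATG4B inhibitors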
Sequence (P04054 whole entry): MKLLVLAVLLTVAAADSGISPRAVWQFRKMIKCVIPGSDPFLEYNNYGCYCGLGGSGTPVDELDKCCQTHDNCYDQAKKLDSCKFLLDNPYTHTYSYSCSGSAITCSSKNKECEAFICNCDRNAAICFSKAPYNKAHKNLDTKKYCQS
Assay type: functional
Calls of active or inactive are those of the source.
Return exactly one item of active, inactive

- Smiles Record: "Cc1nc2c(=O)n(C)c(=O)nc-2n(C)n1"
  System Name: "Phospholipase A2 (Homo sapiens, UniProt P04054)"
  Label: "inactive"

Q. Any idea what this test logged for O=C(NC(=S)NCCC1=CCCCC1)c1ccc(Br)o1 ?
A. active

Q. Please state the recorded outcome for this compound: O=C(Cn1cccc1C(=O)c1ccccc1)NCCC1=CCCCC1
A. active

Q. Dear all, I need the recorded test outcome for O=C(O)c1cccc(CSc2nc(-c3ccc(Cl)cc3)cc(C(F)(F)F)n2)c1 , thank you.
A. active

---

System Name: Coagulation factor XII (Homo sapiens);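 also: activated factor XIIa alpha cleaving a fluorogenic AMC peptide substrate; inhibitor potency from loss of enzyme activity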
Assay type: functional
The source made the active and inactive calls.
Your reply should match one of these outcome classes. yes for active, no for inactive

- Compound: "Cc1ccc(C(=O)ONc2ccc(N=O)cc2)cc1"
  Label: "yes"

Q. Which outcome was assigned to CN(NC1OC(=O)c2ccccc21)c1ncc(Cl)cc1C(F)(F)F (stereo not given) in this test?
A. no

Q. Lab log entry: CNC(=O)c1ccc(N(Cc2ccccc2)S(C)(=O)=O)cc1 — outcome as called in the assay?
A. no

Q. For Cc1cc(=O)n2c(n1)SCOC2 , what call appears in the results of this test?
A. no

Q. Look up the recorded call for COC(=O)Cc1c(C)nc2ncnn2c1O in this test.
A. no

---

Procedure Summary: HEK-293T cell viability reduction – luminescence, B-cell screen hits, cytotoxicity control for BCR NF-kB inhibitor project, dose response (AID 489021);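 also: HEK-293T cells carrying an NF-kB luciferase reporter; cells exposed to compound for about 14 hours before viability readout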
Assay type: functional, cell-based
Active and inactive are the calls of the source.
Measurement Label: IC50

// below: answered compounds
- Compound: "CCN1C(=O)c2cccc3c(S(=O)(=O)Nc4ccccc4)ccc1c23"
  IC50: "> 80 µM (inactive)"
- Compound: "CC(C)C(c1nnnn1Cc1ccccc1)N(Cc1ccco1)Cc1cccs1 (centres undefined)"
  IC50: "> 80 µM (inactive)"
- Compound: "CC(=O)c1cccc(S(=O)(=O)Nc2cc(C(F)(F)F)ccc2N2CCOCC2)c1"
  IC50: "> 80 µM (inactive)"

Q. Quick one: IC50 for CCC(C)NC(=O)c1c(N)n(/N=C/c2ccccn2)c2nc3ccccc3nc12 (centres undefined) ?
A. 43.2 µM (inactive)
